test system: 186277-243-T-J2-PDC complex spheroid viability; assay: Anticancer human tumor 186277-243-T-J2-PDC patient-derived colon adenocarcinoma cell line growth inhibition; conditions: second compound 10 µM; first compound 0.3 µM; stronger effect = lower value;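 note: 7 day exposure to compounds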
Binarize viability, T/C at 20%; below is fulfilled, at or above is not fulfilled.

Use the examples below as a reference point.
Nc1ccn(C2OC(CO)C(O)C2(F)F)c(=O)n1 (centres undefined) + NC1CC1c1ccc(-c2cccc(O)c2)cc1: fulfilled
O=C(C=Cc1cccc(S(=O)(=O)Nc2ccccc2)c1)NO + NC1CC1c1ccc(-c2cccc(O)c2)cc1: not fulfilled
COc1cc(C2c3cc4c(cc3C(OC3OC5COC(C)OC5C(O)C3O)C3COC(=O)C23)OCO4)cc(OC)c1O (centres undefined) + NC1CCC(NC2CC2c2ccccc2)CC1: not fulfilled

Switching to the query record.
Please state whether viability, T/C is below 20% for CCN(c1cc(-c2ccc(CN3CCOCC3)cc2)cc(C(=O)NCc2c(C)cc(C)[nH]c2=O)c1C)C1CCOCC1 + NC1CCC(NC2CC2c2ccccc2)CC1
not fulfilled

Every entry's value here was drawn from PubChem BioAssay AID1918933.
